Measured pIC50, listed per entry for reference.
Test system: 699152-130-R-J1-PDC complex spheroid growth
Experiment: Anticancer human tumor 699152-130-R-J1-PDC patient-derived pancreatic carcinoma cell line growth inhibition [AhR]
Conditions: curve of first compound; second compound 3.16 µM
pIC50: −log10 of the molar value.
Property: pIC50

| Compound | Measurement Qualifier | Reported Measurement |
| --- | --- | --- |
| CC(C)c1c(-c2ccccc2)nc2c(C#N)c[nH]n2c1=O + Cc1cncc(-c2nc(NCCc3c[nH]c4ccccc34)c3ncn(C(C)C)c3n2)c1 | < | 5.00 |
| CC[C@@]1(O)C(=O)OCc2c1cc1n(c2=O)Cc2cc3c(CN(C)C)c(O)ccc3nc2-1 + CC(CO)NC(=O)c1cc(-c2ccc(Cl)cc2)nn(-c2cnn(C)c2)c1=O | < | 7.00 |
| O=C(C=Cc1cccc(S(=O)(=O)Nc2ccccc2)c1)NO + CC(CO)NC(=O)c1cc(-c2ccc(Cl)cc2)nn(-c2cnn(C)c2)c1=O | < | 5.00 |
| COc1cccc2c1C(=O)c1c(O)c3c(c(O)c1C2=O)CC(O)(C(=O)CO)CC3OC1CC(N)C(O)C(C)O1 (configuration not stated) + CC(CO)NC(=O)c1cc(-c2ccc(Cl)cc2)nn(-c2cnn(C)c2)c1=O | = | 6.43 |
| COc1ccc([C@@H](O)c2cc(-c3ncnc4cc(N5CCOCC5)ccc34)c(F)cc2Cl)nn1 + Cc1cncc(-c2nc(NCCc3c[nH]c4ccccc34)c3ncn(C(C)C)c3n2)c1 | = | 5.33 |
| CCN(c1cc(-c2ccc(CN3CCOCC3)cc2)cc(C(=O)NCc2c(C)cc(C)[nH]c2=O)c1C)C1CCOCC1 + CC(CO)NC(=O)c1cc(-c2ccc(Cl)cc2)nn(-c2cnn(C)c2)c1=O | < | 5.52 |
| Nc1ncn(C2CC(O)C(CO)O2)c(=O)n1 (configuration not stated) + Cc1cncc(-c2nc(NCCc3c[nH]c4ccccc34)c3ncn(C(C)C)c3n2)c1 | < | 6.00 |
| CCc1c2c(nc3ccc(O)cc13)-c1cc3c(c(=O)n1C2)COC(=O)[C@]3(O)CC + Cc1cncc(-c2nc(NCCc3c[nH]c4ccccc34)c3ncn(C(C)C)c3n2)c1 | = | 7.91 |
| Nc1ncn(C2CC(O)C(CO)S2)c(=O)n1 (configuration not stated) + Cc1ccccc1N=Nc1ccc(NC(=O)c2ccnn2C)c(C)c1 | < | 6.52 |
| Nc1ccn(C2OC(CO)C(O)C2(F)F)c(=O)n1 (configuration not stated) + CC(CO)NC(=O)c1cc(-c2ccc(Cl)cc2)nn(-c2cnn(C)c2)c1=O | = | 5.54 |
| COc1ccc([C@@H](O)c2cc(-c3ncnc4cc(N5CCOCC5)ccc34)c(F)cc2Cl)nn1 + Cc1ccccc1N=Nc1ccc(NC(=O)c2ccnn2C)c(C)c1 | = | 5.27 |
| COc1cccc2c1C(=O)c1c(O)c3c(c(O)c1C2=O)CC(O)(C(=O)CO)CC3OC1CC(N)C(O)C(C)O1 (configuration not stated) + Cc1cncc(-c2nc(NCCc3c[nH]c4ccccc34)c3ncn(C(C)C)c3n2)c1 | = | 6.93 |

* * *

Test system: 699152-130-R-J1-PDC complex spheroid growth
Assay: Anticancer human tumor 699152-130-R-J1-PDC cell line growth inhibition [AhR];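 further: compound exposure lasted 7 days after spheroids had grown for 3 days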
Conditions: second compound 0.316 µM; first compound 0.316 µM; stronger effect = lower value
Measured viability, T/C, listed per entry for reference.

| Molecule | Unit Abbrev | viability, T/C |
| --- | --- | --- |
| O=C(c1cc(Cc2n[nH]c(=O)c3ccccc23)ccc1F)N1CCN(C(=O)C2CC2)CC1 + Cc1ccccc1N=Nc1ccc(NC(=O)c2ccnn2C)c(C)c1 | % | 109 |
| O=C(C=Cc1cccc(S(=O)(=O)Nc2ccccc2)c1)NO + CC(CO)NC(=O)c1cc(-c2ccc(Cl)cc2)nn(-c2cnn(C)c2)c1=O | % | 111 |
| Nc1ncn(C2CC(O)C(CO)O2)c(=O)n1 (stereo not drawn) + Cc1cncc(-c2nc(NCCc3c[nH]c4ccccc34)c3ncn(C(C)C)c3n2)c1 | % | 96.3 |

* * *

Measured pIC50, listed per entry for reference.
Test system: 699152-130-R-J1-PDC complex spheroid growth
Test: Anticancer human tumor 699152-130-R-J1-PDC cell line growth inhibition [AhR];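 further: compound exposure lasted 7 days after spheroids had grown for 3 days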
Settings: curve of first compound; second compound 0.1 µM
pIC50: −log10 of the molar value.

| Compound | pIC50 |
| --- | --- |
| CC[C@@]1(O)C(=O)OCc2c1cc1n(c2=O)Cc2cc3c(CN(C)C)c(O)ccc3nc2-1 + Cc1cncc(-c2nc(NCCc3c[nH]c4ccccc34)c3ncn(C(C)C)c3n2)c1 | < 7.00 |
| CC1(C)CCC(CN2CCN(c3ccc(C(=O)NS(=O)(=O)c4ccc(NCC5CCOCC5)c([N+](=O)[O-])c4)c(Oc4cnc5[nH]ccc5c4)c3)CC2)=C(c2ccc(Cl)cc2)C1 + CC(CO)NC(=O)c1cc(-c2ccc(Cl)cc2)nn(-c2cnn(C)c2)c1=O | < 5.00 |
| NS(=O)(=O)OCC1CC(n2ccc3c(NC4CCc5ccccc54)ncnc32)CC1O (configuration not stated) + CC(CO)NC(=O)c1cc(-c2ccc(Cl)cc2)nn(-c2cnn(C)c2)c1=O | 6.08 |
| COc1ccc([C@@H](O)c2cc(-c3ncnc4cc(N5CCOCC5)ccc34)c(F)cc2Cl)nn1 + Cc1cncc(-c2nc(NCCc3c[nH]c4ccccc34)c3ncn(C(C)C)c3n2)c1 | 5.20 |
| CCN(c1cc(-c2ccc(CN3CCOCC3)cc2)cc(C(=O)NCc2c(C)cc(C)[nH]c2=O)c1C)C1CCOCC1 + Cc1cncc(-c2nc(NCCc3c[nH]c4ccccc34)c3ncn(C(C)C)c3n2)c1 | < 5.52 |
| COc1cc(C2c3cc4c(cc3C(OC3OC5COC(C)OC5C(O)C3O)C3COC(=O)C23)OCO4)cc(OC)c1O (configuration not stated) + CC(CO)NC(=O)c1cc(-c2ccc(Cl)cc2)nn(-c2cnn(C)c2)c1=O | 5.00 |
| CC1(C)CCC(CN2CCN(c3ccc(C(=O)NS(=O)(=O)c4ccc(NCC5CCOCC5)c([N+](=O)[O-])c4)c(Oc4cnc5[nH]ccc5c4)c3)CC2)=C(c2ccc(Cl)cc2)C1 + Cc1cncc(-c2nc(NCCc3c[nH]c4ccccc34)c3ncn(C(C)C)c3n2)c1 | < 5.00 |
| CC[C@@]1(O)C(=O)OCc2c1cc1n(c2=O)Cc2cc3c(CN(C)C)c(O)ccc3nc2-1 + Cc1ccccc1N=Nc1ccc(NC(=O)c2ccnn2C)c(C)c1 | < 7.00 |
| NS(=O)(=O)OCC1CC(n2ccc3c(NC4CCc5ccccc54)ncnc32)CC1O (configuration not stated) + Cc1cncc(-c2nc(NCCc3c[nH]c4ccccc34)c3ncn(C(C)C)c3n2)c1 | 6.05 |
| COc1cccc2c1C(=O)c1c(O)c3c(c(O)c1C2=O)CC(O)(C(=O)CO)CC3OC1CC(N)C(O)C(C)O1 (configuration not stated) + CC(CO)NC(=O)c1cc(-c2ccc(Cl)cc2)nn(-c2cnn(C)c2)c1=O | 6.34 |
| CC1COCCN1c1cc(-c2ccnn2C)c2ccnc(-c3ccn[nH]3)c2n1 (configuration not stated) + CC(CO)NC(=O)c1cc(-c2ccc(Cl)cc2)nn(-c2cnn(C)c2)c1=O | < 6.00 |
| Nc1ccn(C2OC(CO)C(O)C2(F)F)c(=O)n1 (configuration not stated) + CC(CO)NC(=O)c1cc(-c2ccc(Cl)cc2)nn(-c2cnn(C)c2)c1=O | 5.24 |
| Cn1ncnc1C1c2n[nH]c(=O)c3cc(F)cc(c23)NC1c1ccc(F)cc1 (configuration not stated) + CC(CO)NC(=O)c1cc(-c2ccc(Cl)cc2)nn(-c2cnn(C)c2)c1=O | < 7.00 |
| CC1COCCN1c1cc(-c2ccnn2C)c2ccnc(-c3ccn[nH]3)c2n1 (configuration not stated) + Cc1cncc(-c2nc(NCCc3c[nH]c4ccccc34)c3ncn(C(C)C)c3n2)c1 | < 6.00 |
| O=C(c1cc(Cc2n[nH]c(=O)c3ccccc23)ccc1F)N1CCN(C(=O)C2CC2)CC1 + Cc1cncc(-c2nc(NCCc3c[nH]c4ccccc34)c3ncn(C(C)C)c3n2)c1 | < 5.00 |
| Nc1ncn(C2CC(O)C(CO)O2)c(=O)n1 (configuration not stated) + Cc1ccccc1N=Nc1ccc(NC(=O)c2ccnn2C)c(C)c1 | < 6.00 |
| Cn1ncnc1C1c2n[nH]c(=O)c3cc(F)cc(c23)NC1c1ccc(F)cc1 (configuration not stated) + Cc1cncc(-c2nc(NCCc3c[nH]c4ccccc34)c3ncn(C(C)C)c3n2)c1 | < 7.00 |
| O=C(C=Cn1cnc(-c2cc(C(F)(F)F)cc(C(F)(F)F)c2)n1)NNc1cnccn1 + Cc1cncc(-c2nc(NCCc3c[nH]c4ccccc34)c3ncn(C(C)C)c3n2)c1 | < 5.52 |
| CC1COCCN1c1cc(C2(S(C)(=N)=O)CC2)nc(-c2ccnc3[nH]ccc23)n1 (configuration not stated) + Cc1ccccc1N=Nc1ccc(NC(=O)c2ccnn2C)c(C)c1 | < 5.00 |
| O=C(c1cc(Cc2n[nH]c(=O)c3ccccc23)ccc1F)N1CCN(C(=O)C2CC2)CC1 + CC(CO)NC(=O)c1cc(-c2ccc(Cl)cc2)nn(-c2cnn(C)c2)c1=O | < 5.00 |
| O=C(C=Cn1cnc(-c2cc(C(F)(F)F)cc(C(F)(F)F)c2)n1)NNc1cnccn1 + CC(CO)NC(=O)c1cc(-c2ccc(Cl)cc2)nn(-c2cnn(C)c2)c1=O | < 5.52 |
| Cn1ncnc1C1c2n[nH]c(=O)c3cc(F)cc(c23)NC1c1ccc(F)cc1 (configuration not stated) + Cc1ccccc1N=Nc1ccc(NC(=O)c2ccnn2C)c(C)c1 | < 7.00 |
